# Test system: HT29 colon
# assay-explanation: NCI tumour cell line growth inhibition, 48 h
property-label: TGI

> print(dat)
                                   compound  measured
1  Cc1cn2c(=O)c3ncn(C4OC(CO)C(O)C4O)c3n(C)c2n1 (stereo unspecified)  > 100 µM
2  Fc1ccc2c(c1)nc1n2C(c2c(Cl)cccc2Cl)SC1 (stereo unspecified)   29.5 µM
3  O=C1C2SC34c5c2c2ccccc2n5CCC3CCCN14 (stereo unspecified)  > 100 µM
4  CC1CC(OP(=O)(OCc2ccccc2)OCc2ccccc2)[C@@H](OCc2ccccc2)C(OCc2ccccc2)C1OCc1ccccc1 (stereo partly specified)  > 100 µM
5          COc1cccc(CCNC(=O)Cc2ccccc2CCO)c1  > 100 µM
6  CC1(C)/C(=N\NC(N)=O)C2CCC1C2 (stereo unspecified)  > 100 µM

====

# System: MDA-MB-231 breast
# assay-explanation: NCI tumour cell line growth inhibition, 48 h
Starred links: 1 amine or outer side, 2 acyl side, 3 side chain; linkers in the order of their positions; H or OH if unused. Positions of bridges follow the written chain, without caps; N, C: chain ends. Non-standard residues stand in square brackets, D forms with d. Residues, ends and D or L forms follow the SMILES beside them. Chains are numbered I, II in the order given. Actinocin(9to1) = Cc1c2oc3c(C)ccc(C(=O)[*:1])c3nc-2c(C(=O)[*:2])c(N)c1=O; NMeY = CN[CH](Cc1ccc(O)cc1)C(=O)O; Sar = CNCC(=O)O
property-label: TGI

molecule	property-label	measured
Cc1c2oc3c(C)ccc(C(=O)NC4C(=O)NC(C(C)C)C(=O)N5CCCC5C(=O)N(C)CC(=O)N(C)C(Cc5ccc(O)cc5)C(=O)OC4C)c3nc-2c(C(=O)NC2C(=O)NC(C(C)C)C(=O)N3CCCC3C(=O)N(C)CC(=O)N(C)C(Cc3ccc(O)cc3)C(=O)OC2C)c(N)c1=O (stereo not drawn) (I: TVP[Sar][NMeY] / II: TVP[Sar][NMeY]; ester I:1-I:C, II:1-II:C; linker I:N-II:N via Actinocin(9to1); configuration not given here)	TGI	> 1 µM
COC[C@@H](N=CC(C)(C)C)C(C)C	TGI	> 100 µM
CN1CCN(C2CCN(C(=O)Nc3cc(Oc4ccc(NC(=O)C5(C(=O)Nc6ccc(F)cc6)CC5)c(F)c4)ccn3)CC2)CC1	TGI	> 7 µM
O=[N+]([O-])c1ccc(CN(CCCl)OCCCl)cc1	TGI	> 100 µM
O=C(O)COc1ccc2c(=O)c3sc4c(=O)c5ccccc5c(=O)c4c3c(=O)c2c1	TGI	71.7 µM
O=c1[nH]cnc2c1cnn2Cc1cn(CCCCO)nn1	TGI	> 100 µM
NC(N)=NCCN1CC2CCC(CC2)C1	TGI	> 100 µM
COc1cccc(CCNC(=O)Cc2ccccc2CCO)c1	TGI	> 100 µM
Fc1ccc2c(c1)nc1n2C(c2c(Cl)cccc2Cl)SC1 (stereo not drawn)	TGI	30.5 µM
COc1ccc(OC)c2c1[nH]c(=O)c1c3ccccc3cn21	TGI	2.86 µM
O=C1COc2cccnc2N1CCCCO	TGI	> 100 µM
C[C@H]1[C@H]2[C@H]3CC[C@@H]4[C@@]5(C)CC[C@H](O)C(C)(C)[C@@H]5CC[C@@]4(C)[C@]3(C)C[C@H](O)[C@@]2(C)C[C@H]2O[C@]21C	TGI	36.9 µM
O=C(Nc1ccc2ncccc2c1)Nc1ccc2ncccc2c1	TGI	> 100 µM
Cc1ccc2c(c1)C(=S)N1CSCC1c1nncn1-2 (stereo not drawn)	TGI	> 100 µM
CCOC(=O)NC(Nc1ccc(C)cc1)(C(F)(F)F)C(F)(F)F	TGI	> 100 µM
COC(=O)/C=C(\C(=O)OC)C1C(=O)Oc2c(C)c(=O)c3ccccc3n21 (stereo not drawn)	TGI	> 100 µM
O=[N+]([O-])C[C@@]12O[C@]3(O)C4C5CC(C6C5C3C61)C42 (stereo partly drawn)	TGI	> 100 µM
O=C1c2ccccc2C(=O)c2c(NCC(O)CO)ccc(NCC(O)CO)c21 (stereo not drawn)	TGI	> 100 µM
